system: SW480; assay: TCF/Wnt firefly luciferase reporter signal relative to plate median (fraction of plate median); higher = higher Wnt reporter signal; settings: 5 µM; treatment time 24 h; reporter: 7TFP
Assignment: determine reported TCF/Wnt firefly luciferase reporter signal for the given compounds.
I only need the number, thanks.

Form field: reported TCF/Wnt firefly luciferase reporter signal of O=C1c2c(O)cccc2Cc2cccc(O)c21
0.933

Suppose we examine the compound CNC(=C[N+](=O)[O-])NCCSCc1ccc(CN(C)C)o1 ; what TCF/Wnt firefly luciferase reporter signal value has been reported?
0.953

Looking for the measured TCF/Wnt firefly luciferase reporter signal of CC#C[C@]1(O)CC[C@H]2[C@@H]3CCC4=CC(=O)CCC4=C3[C@@H](c3ccc(N(C)C)cc3)C[C@@]21C , can you help?
1.01

# input compound: CO[C@@]1(NC(=O)C(C(=O)O)c2ccc(O)cc2)C(=O)N2C(C(=O)O)=C(CSc3nnnn3C)CO[C@@H]21 (some centres undefined) ; wanted: its TCF/Wnt firefly luciferase reporter signal
1.06

May I ask what TCF/Wnt firefly luciferase reporter signal has been recorded for CN(C)CCN(Cc1ccccc1)c1ccccn1 ?
1.03

// query TCF/Wnt firefly luciferase reporter signal value for entry CC1(C)CC[C@]2(C(=O)O)CC[C@]3(C)C(=CC[C@@H]4[C@@]5(C)CC[C@H](O)C(C)(C)[C@@H]5[C@H](O)C[C@]43C)[C@@H]2C1
1.04

Requested field: TCF/Wnt firefly luciferase reporter signal. Item: COc1cc2oc3cc(OC)c(OC)c(CC=C(C)C)c3c(=O)c2c(OC)c1CC=C(C)C
1.02

# input compound: NC[C@H]1O[C@H](O[C@H]2[C@H](O)[C@@H](O[C@H]3O[C@H](CO)[C@@H](O)[C@H](N)[C@H]3O)[C@H](N)C[C@@H]2N)[C@H](N)[C@@H](O)[C@@H]1O ; wanted: its TCF/Wnt firefly luciferase reporter signal
1.01

I am curious: what TCF/Wnt firefly luciferase reporter signal value has been reported for COc1ccc2c(c1)OC/C(=C/c1ccc(OC)c(OC)c1)C2=O ?
0.972

Given the entry C/C=C(\C)C(=O)[C@@H](C)/C=C(\C)[C@H]1O[C@@](O)([C@@](O)(CC)C(=O)N[C@@H]2C(=O)N3NCCC[C@@H]3C(=O)N(O)[C@@H](C)C(=O)N(C)[C@H](C)C(=O)N3NCCC[C@H]3C(=O)N[C@H]([C@H](C)O)C(=O)O[C@H]2C(C)C)CC[C@@H]1C , report its measured TCF/Wnt firefly luciferase reporter signal.
1.06

Which measured TCF/Wnt firefly luciferase reporter signal value corresponds to COc1cccc2c1CCC1=CC(=O)CC[C@@]12C ?
0.967

Look up TCF/Wnt firefly luciferase reporter signal for this compound: CC(CN1c2ccccc2Sc2ccccc21)N(C)C (centres undefined)
1.11

Fill in the blank: the reported TCF/Wnt firefly luciferase reporter signal of CCN(CC)CCOc1ccc2c(c1)C(=O)c1cc(OCCN(CC)CC)ccc1-2 is ____.
1.02

# get_value(readout='TCF/Wnt firefly luciferase reporter signal', item= CN1CCN2c3ccccc3Cc3ccccc3C2C1 (centres undefined) )
1.08

What does the data say about its TCF/Wnt firefly luciferase reporter signal? Entry: C=C1C[C@H]2[C@@H]3C=C(C)C4=CC(=O)CC[C@]4(C)[C@H]3CC[C@]2(C)[C@@]1(OC(C)=O)C(C)=O
0.902

Fill blank: measured TCF/Wnt firefly luciferase reporter signal of the compound O=C(O[C@@H]1Cc2c(O)cc(O)cc2O[C@@H]1c1cc(O)c(O)c(O)c1-c1c([C@H]2Oc3cc(O)cc(O)c3C[C@H]2OC(=O)c2cc(O)c(O)c(O)c2)cc(O)c(O)c1O)c1cc(O)c(O)c(O)c1 is ____.
1.01

Give its TCF/Wnt firefly luciferase reporter signal value. Item: O=c1oc(CO)c(CO)c2cccc(O)c12 [8-hydroxy-3,4-bis-(hydroxymethyl)-isocumarin]
1.05

Endpoint output: TCF/Wnt firefly luciferase reporter signal of CC1=C(/C=C/C(C)=C/C=C/C(C)=C/C(=O)O)C(C)(C)CCC1 . Value?
0.889

Reported TCF/Wnt firefly luciferase reporter signal for COCCOC(=O)C1=C(C)NC(C)=C(C(=O)OC(C)C)C1c1cccc([N+](=O)[O-])c1 (centres undefined) : what is it?
1.12

Which TCF/Wnt firefly luciferase reporter signal is listed for CC(C)(C)NCC(O)COc1cccc2c1CC(O)C(O)C2 (centres undefined) ?
0.996

TCF/Wnt firefly luciferase reporter signal lookup needed for Nc1ccc(C(=O)O)c(O)c1 , thanks.
1.06

So what's the measured TCF/Wnt firefly luciferase reporter signal for this one? CC[C@H]1OC(=O)[C@H](C)[C@@H](O[C@H]2C[C@@](C)(OC)[C@@H](O)[C@H](C)O2)[C@H](C)[C@@H](O[C@@H]2O[C@H](C)C[C@H](N(C)C)[C@H]2O)[C@](C)(O)C[C@@H](C)[C@@H]2N[C@@H](COCCOC)O[C@H]([C@H]2C)[C@]1(C)O
0.998

Please report the recorded TCF/Wnt firefly luciferase reporter signal for Cc1cc(C(C)(C)CC(C)(C)C)ccc1OCCOCC[N+](C)(C)Cc1ccccc1 .
0.909

Name the reported TCF/Wnt firefly luciferase reporter signal value associated with the compound C[C@]12CC[C@@H]3c4ccc(O)cc4CC[C@H]3[C@@H]1CC[C@@H]2OC(=O)CCC1CCCC1
1.11

Give its TCF/Wnt firefly luciferase reporter signal value. Item: Cn1ccnc1S
0.95

# get_value(readout='TCF/Wnt firefly luciferase reporter signal', item= CO/N=C1\C[C@]2(C[C@@H]3C[C@@H](C/C=C(\C)C[C@@H](C)/C=C/C=C4\CO[C@@H]5[C@H](O)C(C)=C[C@@H](C(=O)O3)[C@]45O)O2)O[C@H](/C(C)=C/C(C)C)[C@H]1C )
0.932

// returns reported TCF/Wnt firefly luciferase reporter signal for input CNCc1ccccc1
1.04

Form field: reported TCF/Wnt firefly luciferase reporter signal of CC(=O)O[C@H]1C[C@@H](OC(C)=O)C(C)(C)C2CC(=O)[C@]3(C)C(CC[C@@]4(C)[C@H](c5ccoc5)OC(=O)[C@H]5O[C@]543)[C@]21C (some centres undefined)
1.03

Entry CC(=O)OCC(=O)[C@@]1(O)CC[C@H]2[C@@H]3CCC4=CC(=O)C=C[C@]4(C)[C@H]3[C@@H](O)C[C@@]21C : reported TCF/Wnt firefly luciferase reporter signal = ?
1.11

Entry under review: CC=CC(=O)N(CC)c1ccccc1C . Reported TCF/Wnt firefly luciferase reporter signal?
0.853

Need TCF/Wnt firefly luciferase reporter signal of COCCc1ccc(OCC(O)CNC(C)C)cc1 (centres undefined) , thanks.
1.05

Need TCF/Wnt firefly luciferase reporter signal, item N[C@@H](C=O)[C@@H](O[C@@H]1O[C@H](C(=O)O)[C@@H](O)[C@H](O)[C@H]1O)[C@@H](O)[C@H](O)CO
1

Which TCF/Wnt firefly luciferase reporter signal is reported for this compound? CC(=O)c1ccc[nH]1
0.798

Can you share its TCF/Wnt firefly luciferase reporter signal? I mean this compound: C[C@]12CCC(=O)C=C1CC[C@@H]1[C@@H]2[C@@H](O)C[C@@]2(C)[C@H]1CC[C@]2(O)C(=O)CO
0.935

* * *

system: SW480; experiment: cell viability (CellTiter-Glo) relative to plate median (fraction of plate median); higher = more viable cells; conditions: 5 µM; treatment time 24 h; reporter: 7TFP
Field: label. Allowed values: y (cell viability < 1) or n (cell viability >= 1).

Hello, I'm reviewing records and need to know if cell viability of COC(=O)CC[C@@H](C)[C@H]1CC[C@H]2[C@@H]3CC[C@@H]4C[C@H](O)CC[C@]4(C)[C@H]3C[C@H](O)[C@]12C is below 1. Could you check?
y

API: query returns whether the compound falls strictly under 1 in cell viability. Query: Nc1c(Br)cc(Br)cc1CN[C@H]1CC[C@H](O)CC1
y

Does this compound meet the criterion cell viability < 1? Oc1ccc2c(c1)O[C@H](c1ccc(O)c(O)c1)[C@@H](O)C2
n

Problem: For the compound CCOC(=O)c1ncn2c1CN(C)C(=O)c1cc(F)ccc1-2 , is cell viability under 1?
y

Is the reported cell viability for Nc1nc(N)c2nc(-c3ccccc3)c(N)nc2n1 strictly below 1?
y

Would you kindly verify if cell viability of CCCCCCCCCCCCC[N+](C)(C)Cc1ccccc1 is strictly less than 1?
y

Given CC(=O)OC1CCC2(C)C(=CCC3C2CCC2(C)C(C(C)CCCC(C)C)CCC32)C1 (stereo not drawn) , is recorded cell viability strictly lower than 1?
y

Quick check: does CCOc1ccc2nc(S(N)(=O)=O)sc2c1 have cell viability under 1?
y

Given the entry CCC(=O)OCC(=O)[C@@]1(OC(=O)CC)[C@@H](C)C[C@H]2[C@@H]3CCC4=CC(=O)C=C[C@]4(C)[C@@]3(F)[C@@H](O)C[C@@]21C , would its reported cell viability be below 1?
y

Decide: cell viability of COc1cc(O)c2c(=O)c(O)c(-c3ccc(O)c(O)c3)oc2c1 strictly below 1?
n

Please let me know if C=C(C)[C@@H]1C[C@H]2O[C@](O)(C/C(C)=C\C(=O)/C=C(/C)C[C@@H]3OC(=O)[C@]24O[C@@H]34)[C@H]1O [bipinnatolide F] shows cell viability below 1.
y

Does the reported cell viability of the following compound sit strictly below 1? CC(C)(C)NCC(O)c1cc(O)cc(O)c1 (stereo not drawn)
n

Check if cell viability falls below 1 for CO/N=C(\C(=O)N[C@@H]1C(=O)N2C(C(=O)OC(C)OC(C)=O)=C(COC(N)=O)CS[C@H]12)c1ccco1 (stereo partly drawn) .
y

Item O=CN(O)CCCC(NC(=O)C(CO)NC(=O)C1COC(c2ccccc2O)=N1)C(=O)NCCC(=O)NC1CCCN(O)C1=O (stereo not drawn) [Oxachelin] : cell viability beneath 1, strictly?
n

Hello, I'm reviewing records and need to know if cell viability of COc1cccc2c1C(=O)c1c(O)c3c(c(O)c1C2=O)C[C@@](O)(C(=O)CO)C[C@@H]3O[C@H]1C[C@H](N)[C@@H](O)[C@H](C)O1 is below 1. Could you check?
n

Take the compound O=C(/C=C/c1ccc(O)c(O)c1)OCCc1ccccc1 and say whether its cell viability is less than 1.
y
